The compounds below have reported pIC50 for Acetylcholinesterase (Electrophorus electricus, UniProt O42275).
Scale: pIC50 equals -log10([C]), with [C] in mol/L.

O=C1c2ccccc2C(=O)N1CCCCCNCc1ccc(F)cc1F tested on Acetylcholinesterase (Electrophorus electricus, UniProt O42275) gave pIC50: 7.00

Measured pIC50 (Acetylcholinesterase (Electrophorus electricus, UniProt O42275)), entry O=C1c2ccccc2C(=O)N1CCCCCCNCc1cccc(Cl)c1 : 6.74

Readout pIC50 for O=C1c2ccccc2C(=O)N1CCCCCNCc1ccc(F)cc1 , test system Acetylcholinesterase (Electrophorus electricus, UniProt O42275), was 6.66

Field pIC50 (system: Acetylcholinesterase (Electrophorus electricus, UniProt O42275)) for entry O=C1c2ccccc2C(=O)N1CCCCCCCNCc1ccccc1F = 6.92

Tested on Acetylcholinesterase (Electrophorus electricus, UniProt O42275): O=C1c2ccccc2C(=O)N1CCCCCCNCc1ccccc1F . Observed pIC50: 6.95

# value of pIC50, Acetylcholinesterase (Electrophorus electricus, UniProt O42275), item O=C1c2ccccc2C(=O)N1CCCCCCCNCc1cccc(Cl)c1 = 6.30

Hey, Acetylcholinesterase (Electrophorus electricus, UniProt O42275) data for O=C1c2ccccc2C(=O)N1CCCCCCCCNCc1ccc(F)cc1F : pIC50 came out at 6.22

Acetylcholinesterase (Electrophorus electricus, UniProt O42275) data for O=C1c2ccccc2C(=O)N1CCCCCCNCc1ccc(F)cc1F ; its pIC50: 6.64

Query O=C1c2ccccc2C(=O)N1CCCCCCNCc1ccccc1 on Acetylcholinesterase (Electrophorus electricus, UniProt O42275); pIC50 returned: 6.67

Noted pIC50 for O=C1c2ccccc2C(=O)N1CCCCCCCCNCc1ccc(F)cc1 , tested on Acetylcholinesterase (Electrophorus electricus, UniProt O42275): 5.65

Further cases:
// pIC50 (Acetylcholinesterase (Electrophorus electricus, UniProt O42275)) for O=C1c2ccccc2C(=O)N1CCCCCCCNCc1ccc(F)cc1 = 6.44

Kindly note: Acetylcholinesterase (Electrophorus electricus, UniProt O42275), O=C1c2ccccc2C(=O)N1CCCCCCCCNCc1cccc(Cl)c1 , pIC50 value reported: 6.14
